# test.system: T1, GSK-3β 26-383 (in complex with the Axin GSK-3 binding domain) (mouse | human, UniProt Q9WV60 26-383; O15169 383-402)
# T1 construct: The enzyme of the kinetic assays was purified as the GSK-3/Axin complex; A C-terminal 6xHis tag is stated only for the LRP6 fusion constructs, not for this one; also called GSK-3/Axin complex; source: E. coli BL21(DE3) Codon-plus RIL, co-expressed with GST-Axin-GBD, purified (glutathione-agarose, TEV cleavage); not shown: GST, N-terminal, cleaved
# T1 sequence (Q9WV60 26-383, chain 1 of 2): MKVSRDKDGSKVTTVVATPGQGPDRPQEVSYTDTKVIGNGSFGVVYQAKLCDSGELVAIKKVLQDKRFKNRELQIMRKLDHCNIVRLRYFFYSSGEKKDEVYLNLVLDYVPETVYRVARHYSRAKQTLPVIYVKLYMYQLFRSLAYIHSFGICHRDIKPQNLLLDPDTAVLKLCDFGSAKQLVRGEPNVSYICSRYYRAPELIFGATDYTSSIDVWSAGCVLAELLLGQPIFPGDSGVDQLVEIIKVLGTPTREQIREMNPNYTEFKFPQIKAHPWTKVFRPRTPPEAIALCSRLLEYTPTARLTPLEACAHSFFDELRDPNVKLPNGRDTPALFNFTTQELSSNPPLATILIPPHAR
# T1 sequence (O15169 other isoform, or with tags, fused parts or gaps, chain 2 of 2): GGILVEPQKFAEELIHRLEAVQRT
# assay.info: kinase inhibition assay (32P incorporation into the peIF2b peptide); 224 nM GSK-3β, substrate peptide 20 or 80 µM, 50 mM Tris pH 7.5, 10 mM MgCl2, 0.1% β-mercaptoethanol, 112.5 µM ATP, 30°C; pS9 peptide 50-1000 µM, LRP6 a-motif 5-20 µM; Ki from the apparent Ki corrected by 1+[S]/KM, mean of independent experiments
# reported.conditions: both partners purified
pKi: −log10 of the molar value. Where no end group is shown, it is not given here. [ ]: non-standard residue; d: D form. pT = C[C@@H](OP(=O)(O)O)[C@H](N)C(=O)O; pS = N[C@@H](COP(=O)(O)O)C(=O)O
quantity.kind: pKi

I: NPPP[pS]PA[pT]ERSH (LRP6 cytoplasmic tail, a-motif; also called LrpA peptide) [doubly-phosphorylated LRP6 a-motif peptide]
II: GRPRTT[pS]FAESCK (GSK-3β residues 3-15, printed as GRPRTTpSFAESCK) [GSK-3β pS9 peptide, residues 3-15]
QUERY: Could you kindly indicate whether I or II has the higher pKi value? Pick one; state its label.
RESULT: I
(I: 5.85, II: 4.22)
